All values here come from PubChem BioAssay (NCI).

tested on: UO-31 renal; assay: NCI-60 one-dose screen, 48 h (100 = growth as untreated, 0 = no growth, -100 = all killed); conditions: 10 µM unless noted
The panel holds about 83,000 compounds, 20% with a hit somewhere; the sample as a whole holds those more often.
Below, each of the molecules is paired with its reported growth value.
quantity_name: growth (%)

[
  {
    "compound_smiles": "CCC(CC)NCC(C)(C)O",
    "readout_value": 88.2
  },
  {
    "compound_smiles": "Cc1cc2nc3c4ccc(Br)cc4n(CCN(C)C)c3nc2cc1C",
    "readout_value": -30.3
  },
  {
    "compound_smiles": "Nc1c(C(=O)Nc2cccc3cnccc23)sc2nc3c(cc12)CN(Cc1ccccc1)CC3",
    "readout_value": 75.5
  }
]

---

tested on: M14 melanoma; assay: NCI-60 one-dose screen, 48 h (100 = growth as untreated, 0 = no growth, -100 = all killed); conditions: 10 µM unless noted
About 83,000 compounds went through this panel and 20% of them were active in at least one assay; those are over-represented in the sample as a whole.

[
  {
    "compound": "NC(=O)Nc1ccc(-n2cnc3cc(-c4ccc(O)cc4)ccc32)cc1",
    "growth [%]": 91.6
  },
  {
    "compound": "COc1ccc(Cc2cnc(NC(=O)c3ccc4c(c3)OCCO4)s2)cc1",
    "growth [%]": 15.6
  },
  {
    "compound": "Cn1ccnc1C(=O)/C=C/c1ccc(CC(=O)Nc2ccc(F)cc2)cc1",
    "growth [%]": 81.1
  },
  {
    "compound": "CCC(=O)Oc1ccc(/C(=C(\\C)c2ccccc2)c2ccc(OCCN3CCCCC3)cc2)cc1",
    "growth [%]": 72.3
  },
  {
    "compound": "CCc1c(Cl)nc(N)nc1Nc1ccc(C)c(C)c1",
    "growth [%]": 104
  },
  {
    "compound": "O=C(CCN1CCCC1)Nc1ccc2c(NCc3ccccc3)c3ccccc3nc2c1",
    "growth [%]": 7.61
  },
  {
    "compound": "COc1cc(-c2n/c(=C\\c3c(O)[nH]c4ccc(Cl)cc34)cc3c2=Nc2ccccc2-3)ccc1F",
    "growth [%]": 14
  },
  {
    "compound": "CC1=C(C(=O)/C=C/c2c[nH]c3ccccc23)C(c2ccccc2)NC(=S)N1 (stereo not given)",
    "growth [%]": 94.4
  },
  {
    "compound": "Cc1c(C(=O)NCCC(=O)NO)sc2ncnc(Nc3ccc(NC(=O)Nc4cccc(C(F)(F)F)c4)cc3)c12",
    "growth [%]": 107
  },
  {
    "compound": "CNC(=O)c1cccc(Cn2nc(C)c(NC(=O)c3ccc(COc4ccc(C(F)(F)F)cc4C)cc3)c2C)n1",
    "growth [%]": 53.7
  },
  {
    "compound": "CC(=O)c1cc2c(N)c(C(=O)Nc3cccc4ccncc34)sc2nc1C",
    "growth [%]": 75.8
  },
  {
    "compound": "COc1cc(/C(C)=C(\\c2ccc(Cl)cc2)c2ccc(OCCN3CCCC3)cc2)ccc1F",
    "growth [%]": 18.2
  },
  {
    "compound": "CCNC(=O)Oc1ccc(/C(=C(\\C)c2ccccc2)c2ccc(OCCN3CCCCC3)cc2)cc1",
    "growth [%]": -2.47
  },
  {
    "compound": "Cc1cc2c(C(=O)NCC#N)cccc2n1-c1nc2c(c(NCc3ccccc3)n1)CCCC2",
    "growth [%]": -45
  },
  {
    "compound": "O=C(CCN1CCCC1)Nc1ccc2c(Nc3ccc(Br)cc3)c3ccccc3nc2c1",
    "growth [%]": -75
  },
  {
    "compound": "Cc1cccc(NC(=O)Nc2ccc(-n3cnc4cc(-c5ccc(O)cc5)ccc43)cc2)c1",
    "growth [%]": 21.4
  },
  {
    "compound": "O=C(/C(=C/c1ccc([N+](=O)[O-])cc1)SCc1ccc(F)cc1)c1ccc(F)cc1",
    "growth [%]": 82.8
  },
  {
    "compound": "O=S(=O)(NCCCNc1nccc(-c2c(-c3cccc(O)c3)nc3occn23)n1)c1ccc(Cl)cc1",
    "growth [%]": 24.3
  },
  {
    "compound": "C=C(C)[C@@H]1CC[C@]2(C(=O)N3CCN(C)CC3)CC[C@]3(C)[C@H](CC[C@@H]4[C@@]5(C)CC[C@H](OCCC#N)C(C)(C)[C@@H]5CC[C@]43C)[C@@H]12",
    "growth [%]": 107
  },
  {
    "compound": "CN(C)c1ccc(Nc2c3ccccc3nc3cc(NC(=O)CCN4CCCC4)ccc23)cc1",
    "growth [%]": -84.9
  }
]
